Assay: Solubility of the compound at pH 1.2 after 2 hrs
Format: physicochemical
Details: buffer
outcome_measure: solubility at 2 h

Could you tell me which solubility at 2 h is on file for CCc1nc(CC(C)(C)C)c(CN)c(-c2ccc(C)cc2)c1CC(=O)O.O ?
> 1000 µg/mL

###

Test: Solubility of the compound at pH 6.8 after 2 hrs
Format: physicochemical
Details: buffer
outcome_measure: solubility at 2 h (µg/mL)
Numbers only, in µg/mL.

Look up solubility at 2 h: CCc1nc(CC(C)(C)C)c(CN)c(-c2ccc(C)cc2)c1CC(=O)O.O
930

###

Test: Half life in dog at 1 mg/kg, po
Assay type: ADME, organism-based, Canis lupus familiaris
Set-up: dose 1 mg/kg, route oral
Conditions: in vivo
outcome_measure: half-life (h)
One number for each entry, in h.

Would you kindly share the measured half-life for CCc1nc(CC(C)(C)C)c(CN)c(-c2ccc(C)cc2)c1CC(=O)O.O ?
4.97
